# System: Leaf
# ASSAY_INFO: Drug recovery in leaf of Secale cereale (rye) at 5 ng/g by LC-MS analysis
Reported Drug recovery by item:
METRIC: Drug recovery (%)

{"columns": ["MOLECULE", "METRIC", "UNIT_ANNOTATION", "MEASUREMENT"],
 "data": [
  ["O=c1c(-c2ccc(O)cc2)coc2cc(O)cc(O)c12 [GENISTEIN]", "Drug recovery", "%", 81],
  ["COc1ccc(C2COc3cc(O)cc(O)c3C2=O)cc1 (stereo not given) [DIHYDROBIOCHANIN A]", "Drug recovery", "%", 104],
  ["COc1ccc(-c2coc3cc(O)cc(O)c3c2=O)cc1O [PRATENSEIN]", "Drug recovery", "%", 98],
  ["O=C(O)/C=C/c1ccc(O)cc1 [COUMARIC ACID]", "Drug recovery", "%", 79],
  ["COc1ccc(-c2coc3cc(O)cc(O)c3c2=O)cc1 [BIOCHANIN]", "Drug recovery", "%", 93]
]}

* * *

# System: Leaf
# ASSAY_INFO: Drug recovery in leaf of Secale cereale (rye) at 50 ng/g by LC-MS analysis
METRIC: Drug recovery (%)

{"columns": ["COMPOUND", "METRIC", "UNIT_ANNOTATION", "MEASUREMENT"],
 "data": [
  ["O=C(O)/C=C/c1ccc(O)cc1", "Drug recovery", "%", 81],
  ["O=c1c(-c2ccc(O)cc2)coc2cc(O)cc(O)c12", "Drug recovery", "%", 65],
  ["COc1ccc(-c2coc3cc(O)cc(O)c3c2=O)cc1", "Drug recovery", "%", 93],
  ["COc1ccc(C2COc3cc(O)cc(O)c3C2=O)cc1 (centres undefined) [DIHYDROBIOCHANIN A]", "Drug recovery", "%", 76]
]}

Just for reference, ChEMBL document CHEMBL3046081 is where these values come from.
